Every entry's value here was drawn from paper PMC4245176.

# TARGET DESC: HIV-1NL4-3 CA protein (Human immunodeficiency virus type 1 group M subtype B, UniProt P12493)
PROPERTY: Kd
// unit must come after the numeric part

Return Kd for the following compound: O=[N+]([O-])c1cccc(-c2nc3c4cc(I)ccc4c4ccccc4c3[nH]2)c1 [Compound 34] 11.8 µM
